Cited source: PubChem BioAssay AID212

- Tested on: BDF1 mice, colon carcinoma 38 sc, T/C %
- assay-notes: NCI In Vivo Anticancer Drug Screen. Data for tumor model Colon Carcinoma 38 (subcutaneous) in B6D2F1 (BDF1) mice
- conditions: endpoint: median tumor weight (est.); dose: 100.0 mg/kg/injection; schedule: Q07DX002 (ip); vehicle: saline with Tween-80; higher = larger tumour
Results filed as inconclusive are left out.
measured-property: T/C

>>> experimental_result("O=C(O[Si](Cc1ccccc1)(Cc1ccccc1)Cc1ccccc1)N(CCCl)CCCl")
"194 % of control"

Now look at this entry.
Challenge: Answer with the recorded T/C of O=C(Nc1cccc(Cl)c1)ON1C(=O)C2C(C1=O)C1(Cl)C(Cl)C(Cl)C2(Cl)C1(Cl)Cl (configuration not stated) only.
Response given: 95 % of control

* * *

We begin with a simple list: items and their reported T/C.
- Test system: BDF1 mice, colon carcinoma 38 sc, T/C %
- assay-notes: NCI In Vivo Anticancer Drug Screen. Data for tumor model Colon Carcinoma 38 (subcutaneous) in B6D2F1 (BDF1) mice
- conditions: endpoint: median tumor weight (est.); dose: 200.0 mg/kg/injection; schedule: Q07DX002 (ip); vehicle: saline with Tween-80; higher = larger tumour
Results filed as inconclusive are left out.

Challenge: Give reported T/C value for Cc1nn(CCO)c(C)c1N=[N+]([O-])c1c(C)nn(CCO)c1C
Response given: 79 % of control

Challenge: Annotate the compound COC(=Nc1ccccc1)SSC(C)C with its measured T/C.
Response given: 100 % of control

Challenge: Entry C(C#CCN1CCOCC1)#CCN1CCOCC1 needs its T/C filled in; supply it.
Response given: 296 % of control

Challenge: Identify T/C associated with the compound COc1cc(C(C)(C)C)cc(OC)c1C(O)(c1c(OC)cc(C(C)(C)C)cc1OC)c1c(OC)cc(C(C)(C)C)cc1OC
Response given: 88 % of control

Challenge: Provide T/C value for the following compound: CCCN1COC(OCC)C(C)(C)C1 (stereo not drawn)
Response given: 77 % of control

Challenge: Give the measured T/C for COc1cc(Cl)ccc1C
Response given: 89 % of control

Challenge: Dear colleague, please send me the reported T/C for O=C(N[C@H](CO)[C@H](O)c1ccc([N+](=O)[O-])cc1)C(Cl)Cl when you can.
Response given: 91 % of control

Challenge: Given the compound Oc1cc2ccccc2c(-c2c(O)c(O)cc3ccccc23)c1O , write its reported T/C.
Response given: 64 % of control

Challenge: Report T/C, nothing else, for this compound: N#CCCSC(=S)C1CCCC1=N (stereo not drawn)
Response given: 99 % of control

Challenge: For COC1=C(OC)C(=O)C(C/C=C(\C)CC/C=C(\C)CC/C=C(\C)CC/C=C(\C)CC/C=C(\C)CC/C=C(\C)CC/C=C(\C)CC/C=C(\C)CC/C=C(\C)CCC=C(C)C)=C(C)C1=O , write its T/C.
Response given: 121 % of control

Challenge: Using known records, supply T/C for [O-][n+]1c(CN2CCCCC2)nc2cccc3c2c1-c1ccccc1-3
Response given: 57 % of control

Challenge: Entry Nc1cc2c3c(cccc3c1)C(=O)N(CCN1CCCC1)C2=O needs its T/C filled in; supply it.
Response given: 28 % of control

Challenge: Tell me its T/C given CN=S(=O)(OCCCCCOS(=O)(=NC)c1ccc(C)cc1)c1ccc(C)cc1 (stereo not drawn) as the entry.
Response given: 96 % of control

Challenge: Note T/C for the compound shown: Cc1ccc(S(=O)(=O)NC(=S)S)cc1
Response given: 60 % of control
